Literature compilation of IC50 measurements on Prothrombin (Homo sapiens).

GET /values?readout=IC50&system=Prothrombin (Homo sapiens)&item= `O=C(c1ccco1)n1nc(-c2cc(-c3cccnc3)[nH]c(=O)c2)cc1NCc1ccc(Cl)s1`
1 to 10 µM

Please state recorded IC50 (tested on Prothrombin (Homo sapiens)) of `O=S(=O)(N1CCOCC1)N1CCC(c2cc(NCc3ccc(Cl)s3)[nH]n2)CC1`
> 100 µM

Notebook: pull reported IC50 for Prothrombin (Homo sapiens), entry `Cc1cc(NC(=O)[C@H](Cc2ccccc2)NC(=O)OCc2ccccc2)cc2nc(NC(C)C)oc(=O)c12`
> 100 µM

----------
Below are pIC50 measurements against Prothrombin (Homo sapiens, UniProt P00734) drawn from the literature.
pIC50: −log10 of the molar value.

Entry `N=C(N)c1cccc(CNC(=O)Cn2c(-c3ccccc3)ncc(NS(=O)(=O)Cc3ccccc3)c2=O)c1` : reported pIC50 = ?
< 4.52

Would you kindly share the measured pIC50 for `COc1ccccc1C(=O)n1nc(C2CN(S(=O)(=O)c3ccccc3)C2)nc1NCc1ccc(Cl)s1` ?
≥ 7.00

Please report the recorded pIC50 for `O=C(c1ccoc1)n1nc(C2CCOCC2)nc1NCc1ccc(Cl)s1` .
≥ 7.00

// query pIC50 value for entry `CN[C@H](C)C(=O)N[C@@H](Cc1ccc(Cl)c(Cl)c1)C(=O)NCc1ccc(N)nc1`
< 5.00

----------
# merged literature set: log10(IC50) with Prothrombin (Homo sapiens)
Log10 applied to IC50; unit prior to transform: µM.

Field: log10(IC50) (Prothrombin (Homo sapiens)). Entry: `CC(=O)N1CCC[C@@H]1C(=O)N1CCC[C@H]1CCc1cc2ccc(C(=N)N)cc2n1CC(N)=O`
-1.62

Hi! What's the reported log10(IC50) for `N=C(N)c1ccc(CNC(=O)Cc2nc(NC3CCC3)ccc2-c2cccc(N)c2)cc1` on Prothrombin (Homo sapiens)?
-0.15

Param readout = log10(IC50); param system = Prothrombin (Homo sapiens); param query = CCOC(=O)C1CCCN1CC(=O)N1CCC[C@H]1CCc1cc2ccc(C(=N)N)cc2n1CC (some centres unmarked) ; response: value
-1.43

Item: CCn1c(CC[C@@H]2CCCN2C(=O)[C@H]2CCCN2C2CCOC2=O)cc2ccc(C(=N)N)cc21 (some centres unmarked) Test system: Prothrombin (Homo sapiens) Read-out: log10(IC50) Value: ?
-1.65

Param readout = log10(IC50); param system = Prothrombin (Homo sapiens); param query = `CC(C)n1c(=O)n(Cc2ccc3ccc(C(=N)N)cc3c2)c2cc(OC3CCN(C(=N)N)CC3)ccc21` ; response: value
1.17

Form entry - test system: Prothrombin (Homo sapiens); read-out: log10(IC50); molecule: Nc1nccc2cc(OCCC3CCCCN3C(=O)C(CC3CCCCC3)NC3CCCCC3)ccc12 (centres unmarked)
-0.30

Request body: readout log10(IC50), system Prothrombin (Homo sapiens), query `CC(=N)N1CCC(Oc2ccc(C(=O)NCc3cccc(C(=N)N)c3)cc2)CC1` . Return the value.
2.14

Give log10(IC50) (Prothrombin (Homo sapiens)) of the following molecule: `O=C(NCc1ccc2cc[nH]c2c1)[C@@H]1CCc2cnc(NCCc3ccccn3)c(=O)n21`
-1.66

Which log10(IC50) is reported with Prothrombin (Homo sapiens) for this entry: `CC(C)Nc1nc(Cl)c(-c2cc(N)cc(C(=O)NC(C)(C)c3ccccc3)c2)n(CC(=O)NCc2ccc(C(=N)N)cc2)c1=O` ?
1.38

Can you look up log10(IC50) on Prothrombin (Homo sapiens) for `NCCCC[C@H](NC(=O)[C@@H]1CCCN1C(=O)[C@@H](Cc1ccc(F)cc1)NCC(=O)O)C(=O)c1nccs1` ?
1.28

Lab note: need log10(IC50) for `CCOC(=O)C[C@H](N)C(=O)N1CCC[C@@H]1C(=O)N1CCC[C@H]1CCc1cc2ccc(C(=N)N)cc2n1CC` on Prothrombin (Homo sapiens), anyone have it?
-1.59

What value of log10(IC50) on Prothrombin (Homo sapiens) does `N=C(N)c1ccc(CNC(=O)Cn2c(-c3ccc(N)cc3)c(Cl)nc(NC3CCC3)c2=O)cc1` have?
0.88

Query for Prothrombin (Homo sapiens): what log10(IC50) does the record show for `N=C(N)c1ccc(CNC(=O)Cn2c(=O)c(NS(=O)(=O)c3ccccc3)cc3ccccc32)cc1` ?
1.36

----------
Please find below pIC50 data on Prothrombin (Homo sapiens) compiled from the literature.
Please note pIC50 is a logarithmic value: minus log10 of concentration in mol/L. Answer with that number alone.

Could you share which pIC50 value was measured for `CC(=N)N1CCC(Oc2ccc(N(Cc3cc4cc(C(=N)N)ccc4s3)S(C)(=O)=O)cc2)CC1` ?
4.51

Tell me the measured pIC50 of `CN(C)C(=N)Nc1ccc(C(=O)Oc2ccc3cc(C(=N)N)ccc3c2)cc1` , please.
6.22

// lookup pIC50 for `CCn1c(Cn2c(=O)[nH]c3ccc(OC4CCN(C(=N)N)CC4)cc32)cc2ccc(C(=N)N)cc21`
6.52

Fill in: pIC50 of `N=C(N)c1ccc(CNCCn2c(-c3cccc(N)c3)c(Cl)nc(NC3CCC3)c2=O)cc1` is ___
4.45

Given `CC(C)Nc1ccc(-c2cc(N)cc(N)c2)c(CC(=O)NCc2ccc(C(=N)N)cc2)[n+]1[O-]` , state its recorded pIC50.
4.22

----------
Before we begin, note that these IC50 values for Prothrombin (Homo sapiens) originate from several publications.

Request: IC50, test system Prothrombin (Homo sapiens), entry CS(=O)(=O)N1CCC(c2cc(NCc3ccc(Cl)s3)[nH]n2)C1 (stereo not drawn)
> 100 µM

Notebook: pull reported IC50 for Prothrombin (Homo sapiens), entry CC1CCCC(C)N1CC(=O)N[C@@H](Cc1ccc(F)c(F)c1)C(=O)NCc1ccc(N)nc1 (stereo partly drawn)
> 10 µM

Missing value: IC50, Prothrombin (Homo sapiens), entry `O=C(c1ccsc1)n1nc(-c2ccc(=O)[nH]c2)cc1NCc1ccc(Cl)s1` . Fill in?
0.1 to 1 µM

----------
Across several publications, the following IC50 results were reported for Prothrombin (Homo sapiens).

Query for Prothrombin (Homo sapiens): what IC50 does the record show for `CC(=O)N1CCC(c2cc(NCc3ccc(Cl)s3)n(C(=O)C(C)(C)C)n2)CC1` ?
< 0.1 µM

Lookup: IC50 / Prothrombin (Homo sapiens) / `CCn1c(CC[C@@H]2CCCN2C(=O)[C@H]2CCCN2C(=O)CC(N)=O)cc2ccc(C(=N)N)cc21`
0.00992 µM

Request: IC50, test system Prothrombin (Homo sapiens), entry CCn1c(CC[C@@H]2CCCN2C(=O)[C@H]2CCCN2C(=O)C2CCCCN2)cc2ccc(C(=N)N)cc21 (stereo partly shown)
0.0183 µM

// lookup IC50 | system=Prothrombin (Homo sapiens) | key= `COc1ccccc1C(=O)n1nc(C2CN(S(=O)(=O)N(C)C)C2)nc1NCc1ccc(Cl)s1`
≤ 0.1 µM

Recall the recorded IC50 for `O=C(Cc1c(F)ccc(NS(=O)(=O)Cc2ccccc2)c1F)NCCCn1ccnc1` with Prothrombin (Homo sapiens) and state it.
> 30 µM

Tell me reported IC50 for `N=C(N)c1ccc(C(=O)NCCn2c(-c3cccc(N)c3)c(Cl)nc(NC3CCC3)c2=O)cc1` , tested with Prothrombin (Homo sapiens).
> 30 µM

Please tell me: IC50 of `O=c1cc(-c2cc(NCc3ccc(Cl)s3)[nH]n2)ccn1Cc1cccnc1` , system Prothrombin (Homo sapiens)?
> 100 µM

----------
pIC50: −log10 of the molar value.
We begin with pIC50 values for Prothrombin (Homo sapiens, UniProt P00734), as collected from the published literature.

Notebook entry, Prothrombin (Homo sapiens, UniProt P00734) assay: pIC50 of `CC(C)(C)OC(=O)N1CC(c2n[nH]c(N)n2)C1` = ?
≤ 4.00

Fill in the recorded pIC50 for this compound, with Prothrombin (Homo sapiens, UniProt P00734) as test system: `CCn1c(CC[C@@H]2CCCN2C(=O)[C@H]2CCCN2C(=O)CCCN)cc2ccc(C(=N)N)cc21`
7.48

Request - read-out pIC50 | tested on Prothrombin (Homo sapiens, UniProt P00734) | compound CCC(C)[C@@H](N)C(=O)N[C@@H](CC1CCCCC1)C(=O)NCc1ccc(N)nc1 (stereo partly shown)
< 5.00

Query pIC50 on Prothrombin (Homo sapiens, UniProt P00734) for `C[C@@H]1CCC[C@H](C)N1CCCCCn1c(=O)c(-c2cc(C(=N)N)ccc2O)nc2ccccc21`
5.15

What is its pIC50 for Prothrombin (Homo sapiens, UniProt P00734)? Entry: `CC(C)(C)C(=O)n1nc(-c2cc(Br)[nH]c(=O)c2)cc1NCc1ccc(Cl)s1`
> 7.00

Identify the measured pIC50 of `CC(C)c1ccc(CCNS(=O)(=O)c2cc(C(=N)N)ccc2O)c(S(N)(=O)=O)c1` for Prothrombin (Homo sapiens, UniProt P00734).
< 4.00

Value wanted: pIC50 (Prothrombin (Homo sapiens, UniProt P00734)) of entry `CN(C)c1ccc(CNC(=O)c2cc(NS(=O)(=O)Cc3ccccc3)ccc2Sc2ccccc2)cc1`
< 4.52
